// provenance: the SangsterLogP compilation

MEASURED PARAMETER: logP

> print(dat)
                molecular.string  recorded.result
1  CNC(=O)N(C)S(=O)(=O)Cc1ccccc1             1.18
2   CNC(=O)N(C)S(=O)(=O)c1cccnc1             0.42
3     CNC(=O)NS(=O)(=O)Cc1ccccc1             0.54

A: NC(=O)NS(=O)(=O)Cc1ccccc1
B: CN(C)C(=O)NS(=O)(=O)Cc1ccccc1
Select the item with the higher value of logP from the options A and B listed. Which one? Tell me its label. B
(B: 0.54, A: 0.28)

---

assay: method code SF-AS, from Cloux, J.; Crommen, J.; Delarge, J.; Pirard, M.; Thunus, L. (1988). Attempts at calculating hydrophobic constant of the sulfonylurea group. J Pharm Belg, 43(3)141-151.; conditions: pH 3.5
MEASURED PARAMETER: logD

I: NC(=O)NS(=O)(=O)c1cccnc1
II: CNC(=O)NS(=O)(=O)c1cccnc1
Identify the item whose logD is the smaller number: I or II Which one? Tell me its label. I
